assay.target: human GLP-1R (Homo sapiens, UniProt P43220, L260F)
Construct: expressed in transfected cells
Sequence (P43220 24-463 L260F): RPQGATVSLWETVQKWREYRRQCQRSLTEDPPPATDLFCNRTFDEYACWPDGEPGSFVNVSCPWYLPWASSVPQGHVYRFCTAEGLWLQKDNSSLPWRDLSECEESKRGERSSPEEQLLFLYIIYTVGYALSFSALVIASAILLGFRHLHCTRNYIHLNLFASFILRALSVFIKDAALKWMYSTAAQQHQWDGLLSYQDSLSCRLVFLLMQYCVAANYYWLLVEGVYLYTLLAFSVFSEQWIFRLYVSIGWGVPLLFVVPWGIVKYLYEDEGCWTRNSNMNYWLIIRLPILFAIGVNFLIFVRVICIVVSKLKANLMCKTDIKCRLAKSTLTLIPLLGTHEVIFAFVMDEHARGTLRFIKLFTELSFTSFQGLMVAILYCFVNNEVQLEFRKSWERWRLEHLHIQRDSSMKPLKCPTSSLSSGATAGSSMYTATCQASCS
test.protocol: CHO GLP-1R Clone C6 - Assay 2 (HTRF cAMP agonist assay, low receptor density)
Assay type: cell-based
study.conditions: CHO GLP-1R Clone C6 (low receptor density), arithmetic mean, relative to 1 μM GLP-1
endpoint.label: Emax (%)
The answer is to be given in %; state only the numeric part.

Here is how some compounds turned out for Emax.
compound	unit.abbrev	Emax
C[C@]1(c2ccc(Cl)cn2)Oc2cccc(C3CCN(Cc4nc5ccc(C(=O)O)cc5n4C[C@@H]4CCO4)CC3)c2O1	%	96
N#Cc1ccc(COc2cccc(C3CCN(Cc4nc5ccc(C(=O)O[C@@H]6O[C@H](C(=O)O)[C@@H](O)[C@H](O)[C@H]6O)cc5n4C[C@@H]4CCO4)CC3)n2)c(F)c1	%	98

Asked: Field: Emax (human GLP-1R (Homo sapiens, UniProt P43220, L260F)). Entry: "O=C(O)c1ccc2nc(CN3CCC(c4cccc(=O)[nH]4)CC3)n(C[C@@H]3CCO3)c2c1"
Given back: 0

Asked: Field: Emax (human GLP-1R (Homo sapiens, UniProt P43220, L260F)). Entry: C[C@]1(c2ccc(Cl)cn2)Oc2cccc(C3CCN(Cc4nc5ccc(C(=O)O[C@@H]6O[C@H](C(=O)O)[C@@H](O)[C@H](O)[C@H]6O)cc5n4C[C@@H]4CCO4)CC3)c2O1 [Metabolite 751b]
Given back: 68

====

assay.target: human GLP-1R (Homo sapiens, UniProt P43220, L260F)
test.protocol: CHO GLP-1R Clone C6 - Assay 2 (HTRF cAMP agonist assay, low receptor density)
study.conditions: CHO GLP-1R Clone C6 (low receptor density), geometric mean
endpoint.label: pEC50
Keep it numeric: pEC50 is minus log10 of the concentration in mol/L.

Asked: Field: pEC50 (human GLP-1R (Homo sapiens, UniProt P43220, L260F)). Entry: N#Cc1ccc(COc2cccc(C3CCN(Cc4nc5ccc(C(=O)O[C@@H]6O[C@H](C(=O)O)[C@@H](O)[C@H](O)[C@H]6O)cc5n4C[C@@H]4CCO4)CC3)n2)c(F)c1 [Compound M1]
Given back: 5.60

====

Tested on: human hepatocytes
test.protocol: In vitro metabolism of Compound 2 in human cryopreserved hepatocytes
Type: in vitro ADME
Parameters: key: ND Not detected.; trace: Trace: observed by HPLC/MS measurements only.; + Minor as assessed by HPLC/UV measurements; ++ moderate as assessed by HPLC/UV measurements; +++ major as assessed by HPLC/UV measurements.; * m/z 593 and m/z 505 co-eluted in rabbit hepatocytes.; ** m/z 591 c and m/z 593 were merged in human hepatocytes and Hepatopack.; *** m/z 607 and m/z 751 b were merged in rabbit hepatocytes
study.conditions: human cryopreserved hepatocytes; HPLC/UV/MS
From the text: Male CD-1 mouse hepatocytes (lot YHL), male Wistar-Han rat hepatocytes (Celsius; product number: M000065; lot: SLA), female New Zealand rabbit hepatocytes (lot 1510147), male cryopreserved cynomolgus monkey hepatocytes (Celsius; product number: M00305; lot: DNB) and mixed-gender cryopreserved human hepatocytes (Bioreclamation; product number: S01988; lot: DCM) were obtained for the hepatocyte in-vitro assessments. […] UV absorbance was monitored with a photo-diode array detector from 220-450 nm. […]
endpoint.label: Relative abundance of metabolite of Compound 2, Human

compound	value.observed
C[C@]1(c2ccc(Cl)cn2)Oc2cccc(C3CCNCC3)c2O1 [Metabolite 331]	+
O=C(O)c1ccc2nc(CN3CCC(c4cccc(O)c4O)CC3)n(C[C@@H]3CCO3)c2c1 [Metabolite 438]	trace
C[C@]1(c2ccc(Cl)cn2)Oc2cccc(-c3cc[n+](Cc4nc5ccc(C(=O)O)cc5n4C[C@@H]4CCO4)cc3)c2O1 [Metabolite 569]	+
C[C@]1(c2ccc(Cl)cn2)Oc2cccc(C3CCN(Cc4nc5ccc(C(=O)O)cc5n4CC(O)CCO)CC3)c2O1 (stereo in doubt) [Metabolite 593]	**
